test target: human ether-à-go-go-related gene (hERG) potassium channel (human)
Sequence (Q12809 whole entry, looked up): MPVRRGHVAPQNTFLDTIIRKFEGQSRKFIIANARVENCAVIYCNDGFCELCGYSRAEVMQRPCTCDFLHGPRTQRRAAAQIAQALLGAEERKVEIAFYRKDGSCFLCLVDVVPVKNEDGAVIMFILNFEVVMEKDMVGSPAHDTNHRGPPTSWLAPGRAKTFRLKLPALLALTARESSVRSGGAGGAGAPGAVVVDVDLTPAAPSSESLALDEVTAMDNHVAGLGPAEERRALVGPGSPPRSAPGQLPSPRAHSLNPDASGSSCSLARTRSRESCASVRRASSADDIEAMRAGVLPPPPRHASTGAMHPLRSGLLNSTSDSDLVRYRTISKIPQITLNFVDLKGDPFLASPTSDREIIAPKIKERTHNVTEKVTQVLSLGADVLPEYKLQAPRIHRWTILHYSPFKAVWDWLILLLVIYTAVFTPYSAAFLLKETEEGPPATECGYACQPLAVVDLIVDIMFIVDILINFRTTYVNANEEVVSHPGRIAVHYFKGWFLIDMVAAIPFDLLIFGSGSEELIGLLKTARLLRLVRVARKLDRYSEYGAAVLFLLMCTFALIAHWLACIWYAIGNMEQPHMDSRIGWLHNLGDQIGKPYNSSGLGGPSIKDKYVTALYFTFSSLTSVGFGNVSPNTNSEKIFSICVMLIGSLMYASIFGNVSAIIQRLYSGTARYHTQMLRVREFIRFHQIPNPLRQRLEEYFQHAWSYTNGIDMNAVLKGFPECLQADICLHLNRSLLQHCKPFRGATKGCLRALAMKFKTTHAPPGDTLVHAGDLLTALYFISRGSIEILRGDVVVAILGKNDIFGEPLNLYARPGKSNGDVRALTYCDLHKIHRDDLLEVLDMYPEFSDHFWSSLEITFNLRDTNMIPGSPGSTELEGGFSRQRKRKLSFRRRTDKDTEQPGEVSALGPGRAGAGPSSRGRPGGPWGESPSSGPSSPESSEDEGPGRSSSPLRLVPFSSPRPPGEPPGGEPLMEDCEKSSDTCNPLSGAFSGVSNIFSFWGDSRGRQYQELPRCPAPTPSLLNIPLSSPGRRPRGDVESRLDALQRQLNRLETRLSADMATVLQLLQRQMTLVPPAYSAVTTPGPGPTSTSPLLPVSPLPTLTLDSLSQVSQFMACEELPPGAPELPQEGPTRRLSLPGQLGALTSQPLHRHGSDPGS
method summary: primary screen, population patch clamp on CHO cells stably expressing hERG; higher = less effect of the substance
The campaign covered roughly 310,000 compounds. About 2,200 (0.71%) showed an effect of 50% or more. The effect is printed as a negative number. Shown is part of a subset that was picked to be rich in strong results.
Each record here notes measured hERG current change (%, negative = inhibition) at 1uM.
Write down the numeric answer in % and omit the unit.

query: # input compound: COc1cccc(OC)c1OCCCCN1CCCCC1.O=C(O)C(=O)O ; wanted: its hERG current change (%, negative = inhibition) at 1uM
result: 9.21

query: # input compound: O=C(O)C(=O)O.c1ccc(COc2ccc(OCCCCN3CCCC3)cc2)cc1 ; wanted: its hERG current change (%, negative = inhibition) at 1uM
result: -28.2

query: # input compound: Cc1cc(F)ccc1S(=O)(=O)Nc1ccc(O)c(Sc2ncn[nH]2)c1 ; wanted: its hERG current change (%, negative = inhibition) at 1uM
result: 20.6

query: # input compound: CC(C)NC(=O)C1CCN(C2CCN(C(=O)Cc3ccc4c(c3)OCO4)CC2)CC1 ; wanted: its hERG current change (%, negative = inhibition) at 1uM
result: 4.98

query: # input compound: CC(=O)CCc1ccc(OCCCCN2CCC(Cc3ccccc3)CC2)cc1.O=C(O)C(=O)O ; wanted: its hERG current change (%, negative = inhibition) at 1uM
result: -68.3

query: # input compound: CC(=O)Nc1ccc(Oc2sc(C(=O)c3ccccc3)c(N)c2C#N)cc1 ; wanted: its hERG current change (%, negative = inhibition) at 1uM
result: 9.56

query: # input compound: OCC1(Cc2ccc(Cl)cc2)CCN(CCCc2ccccc2)CC1 ; wanted: its hERG current change (%, negative = inhibition) at 1uM
result: -83.6

query: # input compound: COc1ccccc1N1CCN(CCCCOc2c(OC)cccc2OC)CC1.O=C(O)C(=O)O ; wanted: its hERG current change (%, negative = inhibition) at 1uM
result: -38.6

query: # input compound: Cc1nc(NCCC(C)C)c2nnn(Cc3ccccc3)c2n1 ; wanted: its hERG current change (%, negative = inhibition) at 1uM
result: 11.3

query: # input compound: Cc1ccccc1CNC(=O)Cc1ccccc1[N+](=O)[O-] ; wanted: its hERG current change (%, negative = inhibition) at 1uM
result: 0.014

query: # input compound: O=C(NCCN1CCOCC1)/C(=C\c1ccc(F)cc1)NC(=O)c1ccccc1 ; wanted: its hERG current change (%, negative = inhibition) at 1uM
result: -51.7

query: # input compound: O=C(C[n+]1ccc(C(=O)N/N=C/c2ccc(O)cc2)cc1)c1ccccc1.[Br-] ; wanted: its hERG current change (%, negative = inhibition) at 1uM
result: 4.63

query: # input compound: CCOc1ccc(C(C)=O)cc1CN1C(=O)NC2(CCCCCCC2)C1=O ; wanted: its hERG current change (%, negative = inhibition) at 1uM
result: -51.8
